biological target: PI3Kβ (Homo sapiens, UniProt P42338); construct: made in house; test: TR-FRET enzymatic activity assay, PI3Kβ; format: biochemical; details: Table 2a; same assay
Sequence (P42338 whole entry): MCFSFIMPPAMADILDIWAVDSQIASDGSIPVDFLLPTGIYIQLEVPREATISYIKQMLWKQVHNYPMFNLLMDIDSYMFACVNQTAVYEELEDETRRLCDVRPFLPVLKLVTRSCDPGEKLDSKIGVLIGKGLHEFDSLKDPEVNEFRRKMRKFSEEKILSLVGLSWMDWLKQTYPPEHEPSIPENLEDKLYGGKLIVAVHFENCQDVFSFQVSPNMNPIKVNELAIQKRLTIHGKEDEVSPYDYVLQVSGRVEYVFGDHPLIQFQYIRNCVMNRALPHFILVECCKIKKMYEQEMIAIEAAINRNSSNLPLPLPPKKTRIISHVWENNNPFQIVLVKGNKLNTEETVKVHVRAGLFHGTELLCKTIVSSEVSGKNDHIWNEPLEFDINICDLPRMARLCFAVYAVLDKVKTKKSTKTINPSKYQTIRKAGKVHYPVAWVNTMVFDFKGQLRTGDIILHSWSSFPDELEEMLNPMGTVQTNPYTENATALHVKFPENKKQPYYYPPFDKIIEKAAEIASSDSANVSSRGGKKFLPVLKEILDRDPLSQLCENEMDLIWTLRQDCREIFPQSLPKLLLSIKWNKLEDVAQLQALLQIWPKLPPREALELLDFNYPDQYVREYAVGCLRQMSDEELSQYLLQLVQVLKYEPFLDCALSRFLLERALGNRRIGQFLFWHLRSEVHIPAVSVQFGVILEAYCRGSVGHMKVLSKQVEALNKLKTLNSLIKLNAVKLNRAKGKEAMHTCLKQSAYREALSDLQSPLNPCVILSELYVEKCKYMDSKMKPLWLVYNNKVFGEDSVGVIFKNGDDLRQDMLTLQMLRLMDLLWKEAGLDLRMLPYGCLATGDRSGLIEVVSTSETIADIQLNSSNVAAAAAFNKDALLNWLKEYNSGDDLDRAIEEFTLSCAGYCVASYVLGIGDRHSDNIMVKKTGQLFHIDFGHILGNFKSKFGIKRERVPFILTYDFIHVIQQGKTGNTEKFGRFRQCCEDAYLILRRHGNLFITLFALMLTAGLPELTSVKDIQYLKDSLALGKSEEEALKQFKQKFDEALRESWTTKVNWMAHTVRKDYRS
Sequence (P27986 whole entry partner): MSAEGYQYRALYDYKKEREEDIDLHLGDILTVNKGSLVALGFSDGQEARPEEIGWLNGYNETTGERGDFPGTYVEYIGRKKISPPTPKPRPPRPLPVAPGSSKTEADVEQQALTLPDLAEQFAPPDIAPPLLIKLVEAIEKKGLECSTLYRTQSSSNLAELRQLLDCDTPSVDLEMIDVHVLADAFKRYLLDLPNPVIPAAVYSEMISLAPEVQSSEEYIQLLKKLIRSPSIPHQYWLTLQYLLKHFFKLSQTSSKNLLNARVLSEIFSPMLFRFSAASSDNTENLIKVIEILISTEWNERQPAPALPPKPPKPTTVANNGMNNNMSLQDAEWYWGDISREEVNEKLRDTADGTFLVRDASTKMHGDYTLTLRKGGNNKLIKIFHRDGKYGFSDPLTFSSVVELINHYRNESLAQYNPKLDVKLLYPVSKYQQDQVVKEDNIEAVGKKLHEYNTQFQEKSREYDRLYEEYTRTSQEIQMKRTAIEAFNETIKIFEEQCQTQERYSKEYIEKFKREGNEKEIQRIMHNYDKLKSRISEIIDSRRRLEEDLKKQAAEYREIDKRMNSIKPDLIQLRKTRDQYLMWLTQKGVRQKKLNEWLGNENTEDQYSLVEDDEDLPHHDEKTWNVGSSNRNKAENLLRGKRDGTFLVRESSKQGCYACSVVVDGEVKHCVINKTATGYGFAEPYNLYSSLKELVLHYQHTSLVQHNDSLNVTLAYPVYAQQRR
Binary label based on IC50 with cut-off 0.01 µM: below gives condition met, not below gives condition not met.

Study these solved cases before continuing.
C[C@H](Nc1nc(N)nc(N)c1Cl)c1nc2c(C#N)cc(F)cc2c(=O)n1-c1cc[nH]n1    condition not met
C[C@H](Nc1nc(N)nc(N)c1Cl)c1nc2c(Cl)ccc(F)c2c(=O)n1-c1cc[nH]n1    condition not met
Cc1n[nH]cc1-n1c([C@H](C)Nc2nc(N)nc(N)c2C#N)nc2cccc(Cl)c2c1=O    condition met
CC[C@H](Nc1nc(N)nc(N)c1C#N)c1nc2cccc(C3CC3)c2c(=O)n1-c1cc[nH]n1    condition met
C[C@H](Nc1nc(N)nc(C(F)F)c1C#N)c1nc2cccc(C(F)F)c2c(=O)n1-c1cc[nH]n1    condition not met

Input: Is IC50 strictly under 0.01 µM for the entry C[C@H](Nc1nc(N)nc(N)c1Cl)c1nc2c(Cl)cc(F)cc2c(=O)n1-c1cn[nH]c1 ?
Output: condition not met

Input: Another compound to look at: C[C@H](Nc1nc(N)nc(N)c1C#N)c1nc2c(C#N)cc(F)cc2c(=O)n1-c1cc[nH]n1
Output: condition met

Input: Another compound to look at: N#Cc1c(N)nc(N)nc1N[C@H](c1nc2cccc(C(F)F)c2c(=O)n1-c1cc[nH]n1)C1CC1
Output: condition met

Input: Another compound to look at: C[C@H](Nc1nc(N)nc(N)c1C#N)c1nc2cccc(C(F)F)c2c(=O)n1-c1cn[nH]c1
Output: condition met

----------
molecular target: PI3Kβ (Homo sapiens, UniProt P42338); construct: made in house; test: TR-FRET enzymatic activity assay, PI3Kβ; format: biochemical; conditions: Table 2; TR-FRET, 2x Km ATP, 30 minutes at 25° C.
PROPERTY_NAME: pIC50
Conceptually, pIC50 converts a concentration in mol/L into minus its log10.

CC[C@H](Nc1nc(N)nc(N)c1C#N)c1nc2cccc(Cl)c2c(=O)n1-c1cc(CCCOC)[nH]n1    6.82
CC[C@H](Nc1ncnc2[nH]cnc12)c1nc2c(Cl)ccc(Cl)c2c(=O)n1-c1cc[nH]n1    7.15

Input: Reported pIC50 for PI3Kβ (Homo sapiens, UniProt P42338), given Nc1nc(N)c(Cl)c(N[C@H](c2nc3cccc(F)c3c(=O)n2-c2cc[nH]n2)C2CC2)n1 ?
Output: 7.15

----------
target: PI3Kβ (Homo sapiens); construct: made in house; experiment: TR-FRET enzymatic activity assay, PI3Kβ; assay type: biochemical; details: Table 2; TR-FRET, 2x Km ATP, 30 minutes at 25° C.
pIC50: −log10 of the molar value.
So basically: pIC50 at 8 or higher? That is label 1. Lower than 8? That is label 0.

CC(C)Cc1cc(-n2c([C@H](C)Nc3ncnc(N)c3C#N)nc3cccc(Cl)c3c2=O)n[nH]1 [Compound 4]    label 0
CC[C@H](Nc1nc(N)nc(N)c1Cl)c1nc2ccc(F)cc2c(=O)n1-c1cc[nH]n1 [Compound 116]    label 0
CC[C@H](NC(=O)c1nccnc1N)c1nc2c(Cl)ccc(Cl)c2c(=O)n1-c1cc[nH]n1 [Compound 118]    label 0
Nc1nc(N)c(Cl)c(N[C@H](c2nc3c(F)ccc(F)c3c(=O)n2-c2cc[nH]n2)C2CC2)n1 [Compound 11]    label 0
CC[C@H](Nc1ncnc2scnc12)c1nc2c(Cl)ccc(Cl)c2c(=O)n1-c1n[nH]cc1Br [Compound 86]    label 0

Input: Check this compound for pIC50 at or above 8: CC[C@H](Nc1ncnc2scnc12)c1nc2cccc(Br)c2c(=O)n1-c1cc[nH]n1 [Compound 101]
Output: label 1

Input: Another compound to look at: CC[C@H](Nc1nc(N)nc2[nH]nc(Br)c12)c1nc2c(C#N)cccc2c(=O)n1-c1cc[nH]n1 [Compound 80]
Output: label 0

Input: Another compound to look at: CC[C@H](Nc1ncnn2ccnc12)c1nc2c(Cl)ccc(Cl)c2c(=O)n1-c1cn[nH]c1 [Compound 40]
Output: label 0

Input: Another compound to look at: Cc1n[nH]c2nc(Cl)nc(N[C@@H](C)c3nc4cccc(Cl)c4c(=O)n3-c3cc[nH]n3)c12 [Compound 89]
Output: label 0

Input: Another compound to look at: CC[C@H](Nc1nc(N)nc(N)c1C#N)c1nc2c(C)ccc(F)c2c(=O)n1-c1cn[nH]c1 [Compound 35]
Output: label 0

Input: Another compound to look at: CC[C@H](Nc1ncnc2[nH]cc(F)c12)c1nc2c(Cl)ccc(Cl)c2c(=O)n1-c1cc[nH]n1 [Compound 59]
Output: label 0

Input: Another compound to look at: C[C@H](Nc1nc(N)nc(N)c1Cl)c1nc2cccc(C(F)F)c2c(=O)n1-c1cc[nH]n1 [Compound 126]
Output: label 1

Input: Another compound to look at: Cc1nc(N)nc(N[C@@H](c2ccccc2)c2nc3cccc(Cl)c3c(=O)n2-c2cn[nH]c2)c1C#N [Compound 108]
Output: label 1

----------
Molecular target: PI3Kγ (Homo sapiens, UniProt P48736)
Construct: made in house
Sequence (P48736 whole entry): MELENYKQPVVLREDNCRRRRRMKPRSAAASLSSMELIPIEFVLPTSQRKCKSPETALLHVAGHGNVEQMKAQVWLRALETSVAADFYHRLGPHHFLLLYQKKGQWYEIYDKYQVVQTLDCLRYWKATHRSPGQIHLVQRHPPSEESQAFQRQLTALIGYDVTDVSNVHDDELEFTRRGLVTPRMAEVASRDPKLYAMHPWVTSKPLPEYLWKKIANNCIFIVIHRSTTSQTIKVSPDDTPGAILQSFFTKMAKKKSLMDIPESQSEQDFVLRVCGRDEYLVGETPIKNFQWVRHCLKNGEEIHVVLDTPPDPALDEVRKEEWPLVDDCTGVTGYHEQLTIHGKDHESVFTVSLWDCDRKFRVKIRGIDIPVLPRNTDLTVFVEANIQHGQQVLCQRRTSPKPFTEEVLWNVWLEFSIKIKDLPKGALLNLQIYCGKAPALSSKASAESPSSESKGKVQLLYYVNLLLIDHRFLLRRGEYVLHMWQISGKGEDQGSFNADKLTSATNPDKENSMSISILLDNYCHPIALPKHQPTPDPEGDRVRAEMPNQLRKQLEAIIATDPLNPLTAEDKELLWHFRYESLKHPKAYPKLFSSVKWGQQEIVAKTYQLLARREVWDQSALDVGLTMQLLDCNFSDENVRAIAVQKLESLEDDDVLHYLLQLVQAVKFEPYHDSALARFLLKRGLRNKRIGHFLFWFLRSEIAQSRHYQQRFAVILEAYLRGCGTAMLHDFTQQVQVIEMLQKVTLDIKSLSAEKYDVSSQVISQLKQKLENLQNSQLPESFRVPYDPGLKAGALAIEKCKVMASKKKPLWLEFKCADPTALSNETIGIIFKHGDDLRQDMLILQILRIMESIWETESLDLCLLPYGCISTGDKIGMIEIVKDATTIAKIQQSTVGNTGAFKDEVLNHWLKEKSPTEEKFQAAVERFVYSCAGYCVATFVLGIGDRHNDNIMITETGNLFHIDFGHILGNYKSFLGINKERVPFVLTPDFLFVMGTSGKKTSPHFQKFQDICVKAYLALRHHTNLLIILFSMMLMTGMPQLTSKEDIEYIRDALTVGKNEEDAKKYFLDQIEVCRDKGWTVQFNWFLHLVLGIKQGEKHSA
Assay: TR-FRET enzymatic activity assay, PI3Kγ
Format: biochemical
Conditions: Table 2a; same assay; read-out: PI3Kγ IC50
Description: The compounds of formula (I) were characterized for their enzymatic activity against the PI3K isoforms. The activities were measured using a time-resolved fluorescence resonance energy transfer (TR-FRET) assay.
PROPERTY_NAME: IC50

Reference set, count: 3
C[C@H](Nc1nc(N)nc(N)c1C#N)c1nc2cc(Cl)ccc2c(=O)n1-c1cc[nH]n1    > 10 µM
C[C@H](Nc1nc(N)nc(C(F)F)c1Cl)c1nc2cccc(Cl)c2c(=O)n1-c1cc[nH]n1    > 10 µM
C[C@H](Nc1nc(N)nc(N)c1Cl)c1nc2cccc(Cl)c2c(=O)n1-c1cc(F)[nH]n1    0.5 µM

We next turn to a different molecule, shown below.
Input: Give its IC50 value. Item: C[C@H](Nc1nc(N)nc(N)c1Cl)c1nc2c(C(F)F)cc(F)cc2c(=O)n1-c1cc[nH]n1
Output: > 10 µM

----------
Each entry below lists one item and its recorded pIC50 value.
molecular target: PI3Kδ (Homo sapiens); construct: made in house; experiment: TR-FRET enzymatic activity assay, PI3Kδ; assay type: biochemical; conditions: Table 2a; same assay
Conceptually, pIC50 converts a concentration in mol/L into minus its log10.

Nc1nc(N)c(Cl)c(N[C@H](c2nc3c(C(F)(F)F)cccc3c(=O)n2-c2cc[nH]n2)C2CC2)n1    7.62
C[C@H](Nc1ncnc(N)c1Cl)c1nc2cccc(Cl)c2c(=O)n1-c1cc[nH]n1    9.22
C[C@H](Nc1nc(N)nc(N)c1C#N)c1nc2ccccc2c(=O)n1-c1cc[nH]n1    8.52

We next turn to a different molecule, shown below.
Input: Give its pIC50 value. Item: C[C@H](Nc1nc(N)nc(N)c1Cl)c1nc2ccc(F)c(Cl)c2c(=O)n1-c1cn[nH]c1
Output: 7.70

----------
molecular target: PI3Kδ (Homo sapiens, UniProt O00329); construct: made in house; assay: TR-FRET enzymatic activity assay, PI3Kδ; type: biochemical; details: Table 2a; same assay
Sequence (O00329 whole entry, one chain of several): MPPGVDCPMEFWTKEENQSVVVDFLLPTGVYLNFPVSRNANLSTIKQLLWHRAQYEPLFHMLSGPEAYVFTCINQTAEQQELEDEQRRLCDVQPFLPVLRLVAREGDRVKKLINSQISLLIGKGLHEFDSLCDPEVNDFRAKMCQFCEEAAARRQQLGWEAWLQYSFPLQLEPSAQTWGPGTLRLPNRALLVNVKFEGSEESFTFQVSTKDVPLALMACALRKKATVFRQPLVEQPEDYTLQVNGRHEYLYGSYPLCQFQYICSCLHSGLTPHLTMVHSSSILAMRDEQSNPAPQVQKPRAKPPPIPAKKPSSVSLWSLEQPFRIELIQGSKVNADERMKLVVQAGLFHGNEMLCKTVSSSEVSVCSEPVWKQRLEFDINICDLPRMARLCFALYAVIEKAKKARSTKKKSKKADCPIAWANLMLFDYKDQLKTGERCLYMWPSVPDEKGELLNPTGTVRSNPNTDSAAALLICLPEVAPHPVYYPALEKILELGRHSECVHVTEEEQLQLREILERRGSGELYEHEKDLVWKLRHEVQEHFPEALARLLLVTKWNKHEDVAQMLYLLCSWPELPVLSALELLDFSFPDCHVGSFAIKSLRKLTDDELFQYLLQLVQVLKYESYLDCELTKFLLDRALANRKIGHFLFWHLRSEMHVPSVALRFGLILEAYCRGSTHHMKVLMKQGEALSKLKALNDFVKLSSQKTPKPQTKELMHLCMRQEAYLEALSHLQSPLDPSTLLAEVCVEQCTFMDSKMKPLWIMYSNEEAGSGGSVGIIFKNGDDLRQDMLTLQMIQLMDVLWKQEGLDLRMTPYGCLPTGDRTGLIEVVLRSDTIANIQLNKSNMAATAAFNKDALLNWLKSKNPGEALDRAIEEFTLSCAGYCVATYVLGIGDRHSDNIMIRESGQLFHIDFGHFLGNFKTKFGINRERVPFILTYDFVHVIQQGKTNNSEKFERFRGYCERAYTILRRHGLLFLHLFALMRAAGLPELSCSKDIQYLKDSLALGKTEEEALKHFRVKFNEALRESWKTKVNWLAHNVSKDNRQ
PROPERTY_NAME: pIC50
Conceptually, pIC50 converts a concentration in mol/L into minus its log10.

C[C@H](Nc1nc(N)nc(N)c1C#N)c1nc2ccc(Cl)c(C(F)F)c2c(=O)n1-c1cc[nH]n1 [Compound 230]    8.22
Cc1n[nH]cc1-n1c([C@@H](Nc2nc(N)nc(N)c2C#N)C2CC2)nc2c(Cl)cc(F)cc2c1=O [Compound 220]    8.15
C[C@H](Nc1nc(N)nc(N)c1Cl)c1nc2c(C(F)(F)F)cccc2c(=O)n1-c1cc[nH]n1 [Compound 136]    7.96
Nc1nc(N)c(Cl)c(N[C@H](c2nc3ccc(F)c(Cl)c3c(=O)n2-c2cc[nH]n2)C2CC2)n1 [Compound 261]    7.92
C[C@H](Nc1nc(N)nc(C(F)F)c1C#N)c1nc2c(F)cc(F)cc2c(=O)n1-c1cc[nH]n1 [Compound 187]    8.22
C[C@H](Nc1nc(N)nc(N)c1Cl)c1nc2cccc(Cl)c2c(=O)n1-c1cc(F)[nH]n1 [Compound 155]    8.00

We next turn to a different compound, shown below.
Input: Give its pIC50 value. Item: C[C@H](Nc1nc(N)nc(N)c1Cl)c1nc2c(Cl)ccc(C(F)F)c2c(=O)n1-c1cc[nH]n1 [Compound 227]
Output: 8.10
